Taken from patent US8835425B2.

Assay: 8581 concentration in serum after i.p. injection
Type: in vivo, mice
Details: B16;129F1, mouse, ip, 0.5 h after i.p. injection, 1 mg/kg, control mice
value.kind: concentration at 0.5 h
Number plus unit, in that order.

Item FC(F)c1ncn2c1Cn1ncnc1-c1cc(Br)ccc1-2 has what recorded concentration at 0.5 h? 271 ng/mL

----------
Test: 8581 concentration in serum after i.p. injection
Assay type: in vivo, mice
Details: B16;129F1, mouse, ip, 24 h after i.p. injection, 1 mg/kg, control mice
value.kind: concentration at 24 h

Item FC(F)c1ncn2c1Cn1ncnc1-c1cc(Br)ccc1-2 [Compound 8581] has what recorded concentration at 24 h? < 0.5 ng/mL
